Please respond with reported hERG current change (%, negative = inhibition) at 10uM for every item in the list.
- TARGET OF ASSAY: human ether-à-go-go-related gene (hERG) potassium channel (human);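 also: peak tail current of the secondary pulse compared with the same well before compound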
- Sequence (Q12809 whole entry, looked up): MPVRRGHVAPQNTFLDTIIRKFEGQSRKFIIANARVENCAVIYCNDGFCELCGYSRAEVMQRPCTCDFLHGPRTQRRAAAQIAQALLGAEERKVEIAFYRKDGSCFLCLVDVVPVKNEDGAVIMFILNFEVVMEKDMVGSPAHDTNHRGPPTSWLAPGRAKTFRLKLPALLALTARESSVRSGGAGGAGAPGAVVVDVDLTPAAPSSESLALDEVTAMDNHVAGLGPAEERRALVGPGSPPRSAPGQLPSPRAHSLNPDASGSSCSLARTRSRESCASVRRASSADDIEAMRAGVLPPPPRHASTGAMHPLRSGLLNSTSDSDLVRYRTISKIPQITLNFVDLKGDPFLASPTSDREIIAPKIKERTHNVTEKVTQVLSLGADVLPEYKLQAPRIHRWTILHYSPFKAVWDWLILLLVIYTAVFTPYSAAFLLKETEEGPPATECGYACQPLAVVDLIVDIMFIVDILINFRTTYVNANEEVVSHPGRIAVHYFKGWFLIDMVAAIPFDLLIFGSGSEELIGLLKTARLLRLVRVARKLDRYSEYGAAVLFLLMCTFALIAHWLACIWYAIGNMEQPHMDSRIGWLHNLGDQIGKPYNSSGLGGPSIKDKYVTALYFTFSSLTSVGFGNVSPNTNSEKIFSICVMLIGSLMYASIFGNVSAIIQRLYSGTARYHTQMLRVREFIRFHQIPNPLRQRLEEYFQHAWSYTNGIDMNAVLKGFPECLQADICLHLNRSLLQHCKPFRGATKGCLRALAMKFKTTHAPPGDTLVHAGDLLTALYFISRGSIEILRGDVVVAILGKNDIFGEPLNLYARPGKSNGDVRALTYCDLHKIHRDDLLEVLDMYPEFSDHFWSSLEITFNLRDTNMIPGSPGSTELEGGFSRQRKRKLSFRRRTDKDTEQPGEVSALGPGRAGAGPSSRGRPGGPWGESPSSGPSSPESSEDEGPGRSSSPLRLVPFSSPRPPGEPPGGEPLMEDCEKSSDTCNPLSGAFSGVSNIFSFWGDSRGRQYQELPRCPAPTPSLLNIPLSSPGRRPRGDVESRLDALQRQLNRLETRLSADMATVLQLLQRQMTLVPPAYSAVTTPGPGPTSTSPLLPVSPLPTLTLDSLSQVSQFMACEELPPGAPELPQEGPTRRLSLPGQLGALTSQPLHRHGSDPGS
- EXPERIMENT NOTES: primary screen, population patch clamp on CHO cells stably expressing hERG; higher = less effect of the substance
Out of some 310,000 compounds screened, about 14,000 (4.5%) showed an effect of 50% or more. The effect is printed as a negative number. This excerpt belongs to a sample that is enriched for strong results.
One number for each entry, in %.

Solved cases below.
COMPOUND | MEAS VALUE
O=C(O)CC1Sc2nc3ccccc3n2C1=O (stereo not shown) | 8.05
COc1ccc(CCN=C(N)C(C)c2ccccc2)cc1OC.Cl (stereo not shown) | 11.4
O=C(/C=C/c1ccccc1)N/C(=C\c1ccco1)C(=O)O | 19.6
COc1ccc(CNC(=O)C[C@H]2C(=O)N(Cc3ccccc3)C[C@@H]2Cc2ccccc2)cc1 | 2.76

// each compound listed below needs its hERG current change (%, negative = inhibition) at 10uM
1. COC(=O)N1C(=O)[C@](c2ccccc2)(C(C)C)N1C(=O)OC
2. Cc1csc(SCC(=O)Nc2cccc3nsnc23)n1
3. Cc1ccc(CNc2nc3ccccc3n3cnnc23)cc1
4. O=S(=O)(Nc1nc2ccccc2nc1NCC1CCCO1)c1ccccc1 (stereo not shown)
5. COC(=O)C1=C(C)NC(C)=C(C(=O)OCCN(C)Cc2ccccc2)C1c1cccc([N+](=O)[O-])c1.Cl (stereo not shown)
6. COc1ccc(-c2cc3nc(C)cc(N)n3n2)cc1
7. COC(=O)c1[nH]c(C)c(/C(O)=C2\C(=O)C(=O)N(CCN(C)C)C2c2cccs2)c1C (stereo not shown)

1: 12.2; 2: -14.8; 3: -6.53; 4: 2.43; 5: 0.0465; 6: 3.53; 7: 16.9
